# measured.target: hFXR (Homo sapiens)
# Sequence (Q96RI1 1-486): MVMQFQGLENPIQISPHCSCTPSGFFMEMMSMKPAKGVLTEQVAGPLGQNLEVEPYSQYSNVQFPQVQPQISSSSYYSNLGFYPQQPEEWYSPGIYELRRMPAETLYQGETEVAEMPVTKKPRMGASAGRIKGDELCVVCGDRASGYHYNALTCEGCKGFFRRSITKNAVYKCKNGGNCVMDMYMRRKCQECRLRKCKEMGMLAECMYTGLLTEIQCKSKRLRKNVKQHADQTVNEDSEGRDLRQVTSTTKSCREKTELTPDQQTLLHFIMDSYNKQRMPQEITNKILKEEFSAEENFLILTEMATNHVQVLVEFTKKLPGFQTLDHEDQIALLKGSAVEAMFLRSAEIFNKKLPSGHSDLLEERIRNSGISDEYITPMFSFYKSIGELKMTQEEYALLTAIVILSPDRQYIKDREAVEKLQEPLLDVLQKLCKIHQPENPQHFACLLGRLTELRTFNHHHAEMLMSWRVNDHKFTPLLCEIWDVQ
# Sequence (P19793 1-462 partner): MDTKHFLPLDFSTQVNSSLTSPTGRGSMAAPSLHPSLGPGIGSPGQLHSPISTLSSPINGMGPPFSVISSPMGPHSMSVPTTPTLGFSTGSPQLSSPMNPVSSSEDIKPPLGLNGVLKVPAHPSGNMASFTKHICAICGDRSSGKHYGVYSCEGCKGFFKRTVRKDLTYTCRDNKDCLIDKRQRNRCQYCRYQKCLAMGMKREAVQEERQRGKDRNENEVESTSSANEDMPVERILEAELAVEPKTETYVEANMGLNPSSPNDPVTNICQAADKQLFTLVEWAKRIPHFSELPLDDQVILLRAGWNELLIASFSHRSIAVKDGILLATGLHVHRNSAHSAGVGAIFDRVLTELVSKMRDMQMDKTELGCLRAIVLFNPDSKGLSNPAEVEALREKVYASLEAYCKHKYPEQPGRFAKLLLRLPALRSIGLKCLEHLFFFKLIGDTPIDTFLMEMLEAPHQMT
# procedure.details: In Vitro FXR Assay (TK): TK-ECRE-luc reporter in transfected CV-1 cells
# run.parameters: 18 hrs incubation, luminescence
pEC50: −log10 of the molar value.
property.label: pEC50

Worked cases, pEC50 given:
compound: COc1ccc(C23CCC(CN(c4cc(-c5cnc(C(C)C)s5)ccn4)C(=O)[C@H]4CC[C@H](OC(=O)N5CC(S(C)(=O)=O)C5)CC4)(CC2)CC3)cc1C [Compound 4.34]
measured.result: ≥ 7.30
--
compound: COc1ccc(C23CCC(CN(c4cc(-c5nc(C(C)C)no5)ccn4)C(=O)[C@H]4CC[C@H](OC(=O)N5CC(O)C5)CC4)(CC2)CC3)cc1C [Compound 26.13]
measured.result: ≥ 7.30
--
compound: COc1ccc([C@H]2CC[C@H](CN(c3cc(-c4cnn(C(C)C)c4)ccn3)C(=O)[C@H]3CC[C@H](OC(=O)NCC(C)(C)CO)CC3)CC2)cc1C [Compound 2.20]
measured.result: ≥ 7.30
--
compound: COc1ccc([C@H]2CC[C@H](CN(c3cccc(-c4cnn(C(C)C)c4)c3)C(=O)[C@H]3CC[C@H](OCCCO)CC3)CC2)cc1C [Compound 16]
measured.result: ≥ 7.30
--
compound: COc1ccc(C23CCC(CN(c4cccc(-c5cnn(C(C)C)c5)n4)C(=O)[C@H]4CC[C@H](OC(=O)N5CC(O)C5)CC4)(CC2)CC3)cc1C [Compound 23.25]
measured.result: ≥ 7.30

Okay, now this compound:
Name the recorded pEC50 of the compound listed here: COc1ccc([C@H]2CC[C@H](CN(c3cccc(-c4cnn(C(C)C)c4)c3)C(=O)[C@H]3CC[C@H](NC(=O)OC4CCOCC4)CC3)CC2)cc1C [Compound 6.06] ≥ 7.30
